assay: chemical genetic growth profiling, strain panel (AID 1159580);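 further: tested at 20 µM; growth read once vehicle control cultures reached saturation at 30 °C; 1 = growth at the plate median or of vehicle wells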; conditions: S. cerevisiae deletion strains, growth OD, locus YNL183C, strain NPR1
Out of some 5,500 compounds screened, about 2,000 (36%) were called active. Another 18% or so got no clear call; they are omitted. No stated cut-off is given here; in the data, active means normalized growth mostly below about 0.91 (no sharp cut-off); inconclusive means no clear call, values can overlap the other calls; inactive means mostly above about 0.92. This is one part of the list.
Returns: one label drawn from 1 (yes) = active, 0 (no) = inactive

Use the examples below as a reference point.
Would you mind telling me which call this test gave COCCCOc1ccnc(CS(=O)c2nc3ccccc3[nH]2)c1C (stereo not drawn) ?
0 (no)

Would you mind telling me which call this test gave CC(=O)[C@@]1(O)CCC2C3C=C(Cl)C4=CC(=O)[C@@H]5CC5[C@]4(C)C3CC[C@@]21C (stereo partly drawn) ?
0 (no)

Would you mind telling me which call this test gave NC[C@@H]1O[C@H](O[C@@H]2[C@@H](CO)OC(O[C@@H]3[C@@H](O)[C@H](N)C[C@H](N)[C@H]3O[C@H]3O[C@H](CO)[C@@H](O)[C@H](O)[C@H]3N)[C@@H]2O)[C@H](N)[C@@H](O)[C@@H]1O (stereo partly drawn) ?
0 (no)

Would you mind telling me which call this test gave NC(=O)c1ccc([N+](=O)[O-])cc1Cl ?
0 (no)

Would you mind telling me which call this test gave Cc1c(OCC(F)(F)F)ccnc1CS(=O)c1nc2ccccc2[nH]1 (stereo not drawn) ?
1 (yes)

Would you mind telling me which call this test gave COC(=O)N/N=C\c1c[n+]([O-])c2ccccc2[n+]1[O-] ?
0 (no)

Would you mind telling me which call this test gave COC(=O)C[C@H]1C(C)(C)[C@@H](O)[C@@H]2CC3=C4CC(O)O[C@@H](c5ccoc5)[C@]4(C)CCC3[C@@]1(C)C2=O (stereo partly drawn) ?
0 (no)

More entries:
Would you mind telling me which call this test gave NC[C@H]1O[C@H](OC2[C@@H](N)C[C@@H](N)[C@H](O[C@H]3O[C@H](CO)[C@@H](O)[C@H](N)[C@H]3O)[C@H]2O)[C@H](O)[C@@H](O)[C@@H]1O (stereo partly drawn) ?
0 (no)

====

Parameter normalized growth: see the listing below.
assay: chemical genetic growth profiling, strain panel (AID 1159580);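 further: tested at 20 µM; growth read once vehicle control cultures reached saturation at 30 °C; 1 = growth at the plate median or of vehicle wells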; details: S. cerevisiae deletion strains, growth OD, locus YPL106C, strain sse1, stronger effect = lower value
Out of some 5,500 compounds screened, about 2,000 (36%) were called active. Not shown: some 18% with an inconclusive outcome. The list shows a part of the results.
Reply with just the number.

These solved cases illustrate the format of a correct answer.
Supply normalized growth value. Item: CCCCC(=O)O[C@]1(C(=O)CO)[C@@H](C)CC2C3CCC4=CC(=O)C=C[C@]4(C)[C@@]3(F)C(O)C[C@@]21C (stereo partly drawn)
1.01

Supply normalized growth value. Item: COc1ccc(-c2cc(=O)c3c(O)c(OC)c(OC)c(OC)c3o2)cc1OC
0.953

More entries:
Supply normalized growth value. Item: C[C@@H](CO)NC(=O)C1C=C2c3cccc4[nH]cc(c34)C[C@H]2N(C)C1 (stereo partly drawn)
1.04

Supply normalized growth value. Item: NCCCN
0.996

Supply normalized growth value. Item: CCC(=O)OCC(=O)[C@@]1(OC(=O)CC)[C@@H](C)CC2C3CCC4=CC(=O)C=C[C@]4(C)C3(F)[C@@H](O)C[C@@]21C (stereo partly drawn)
1.03

====

Parameter normalized growth: see the listing below.
assay: chemical genetic growth profiling, strain panel (AID 1159580);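 further: tested at 20 µM; growth read once vehicle control cultures reached saturation at 30 °C; 1 = growth at the plate median or of vehicle wells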; details: S. cerevisiae deletion strains, growth OD, locus YOR329C, strain SCD5, stronger effect = lower value
The campaign covered roughly 5,500 compounds. About 2,000 (36%) were called active. Another 18% or so got no clear call; they are omitted. The list shows a part of the results.
Reply with just the number.

Supply normalized growth value. Item: COC(=O)/C=C1/OC(c2ccc(OC)cc2)=CC1=O
0.988

Supply normalized growth value. Item: O=C(O/N=C1/CCCc2[nH]c3ccccc3c21)C1CCCCC1
0.972

Supply normalized growth value. Item: Cc1cc(-c2onc(C)c2C(=O)Sc2ccccc2)no1
0.95

More entries:
Supply normalized growth value. Item: CCCCCCCCCCCCSc1ncn[nH]1
0.984

Supply normalized growth value. Item: O=S(=O)(Nc1ccccc1Sc1c(Cl)cncc1Cl)c1ccc(Cl)cc1
0.989

Supply normalized growth value. Item: CC(C)(C)NC(=S)N/N=C\c1cc(Br)c(O)c(Br)c1
0.969

Supply normalized growth value. Item: FC(F)(F)Sc1ccc(OCc2n[nH]c(=S)n2-c2ccccc2)cc1
0.985

Supply normalized growth value. Item: COc1ccccc1N1CCN(C(=O)C(C)c2ccc(CC(C)C)cc2)CC1 (centres undefined)
0.98

Supply normalized growth value. Item: O=C1OC(c2ccccc2)=C/C1=C/c1ccccc1
0.961

Supply normalized growth value. Item: O=C1Nc2ccccc2/C1=C\c1c[nH]c2ccccc12
0.612

Supply normalized growth value. Item: COc1ccc(Br)c(C(=O)/C(C#N)=C/c2cccs2)c1
0.929

Supply normalized growth value. Item: CN(C)/C=C1\CSc2ccc(Cl)cc2C1=O
0.953

Supply normalized growth value. Item: N/C(=N/OC(=O)c1ccc([N+](=O)[O-])cc1)c1c(Cl)cccc1Cl
0.954

Supply normalized growth value. Item: ONC(=Nc1ccccc1Cl)c1ccccc1Cl
0.998

Supply normalized growth value. Item: CN1/C(=C/C=C/c2ccc3ccccc3[n+]2C)C=Cc2ccccc21
0.702

Supply normalized growth value. Item: N/C(=N/OC(=O)Nc1cccc(C(F)(F)F)c1)c1ccc(OC(F)(F)F)cc1
0.993

Supply normalized growth value. Item: O=C(NC(=S)NNc1ncc(C(F)(F)F)cc1Cl)c1cccs1
0.727

Supply normalized growth value. Item: O=C1/C(=C/c2c[nH]c3ccccc23)CSc2ccccc21
0.99

====

test: chemical genetic growth profiling, strain panel (AID 1159580);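 further: tested at 20 µM; growth read once vehicle control cultures reached saturation at 30 °C; 1 = growth at the plate median or of vehicle wells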; settings: S. cerevisiae deletion strains, growth OD, locus YJR075W, strain HOC1
The whole screen tested about 5,500 compounds, of which about 2,000 (36%) were called active. Inconclusive results (about 18%) are left out. Rule as the data show it: active = normalized growth mostly below about 0.91 (no sharp cut-off); inconclusive = no clear call, values can overlap the other calls; inactive = mostly above about 0.92. The list shows a part of the results.
Returns: one label drawn from class 1 (active), class 0 (inactive)

Would you mind telling me which call this test gave CNC(=S)N/N=C\c1cc(Br)cc(Br)c1O ?
class 1

Would you mind telling me which call this test gave COc1c(O)cc2c(c1O)[C@H]1O[C@H](CO)[C@@H](O)[C@H](O)[C@@H]1OC2=O ?
class 0

Would you mind telling me which call this test gave Cc1ccc(C(C)C)c(O)c1C(=O)O ?
class 0

Would you mind telling me which call this test gave COc1ccccc1NC(=S)NCCC(=O)O ?
class 0

Would you mind telling me which call this test gave CC1=C2C(O)C(=O)OC3CC4C(C)(C)C(=O)C=C[C@]4(C)C(CC1)[C@]23C (stereo not given in full) ?
class 0

Would you mind telling me which call this test gave Cc1onc(-c2ccccc2)c1C(=O)On1c(-c2ccccc2)nc2ccccc2c1=O ?
class 0

Would you mind telling me which call this test gave COC(=O)[C@H]1[C@H]2C[C@H]3c4[nH]c5cc(OC)ccc5c4CCN3C[C@H]2C[C@@H](OC(=O)c2cc(OC)c(OC)c(OC)c2)[C@@H]1OC ?
class 0

Would you mind telling me which call this test gave O=[N+]([O-])c1ccc(Oc2c(Cl)cccc2Cl)c(Cl)c1Oc1c(Cl)cccc1Cl ?
class 0

More entries:
Would you mind telling me which call this test gave CO[C@@H]1[C@@H](OC(N)=O)[C@@H](O)[C@H](Oc2ccc3c(O)c(NC(=O)c4ccc(O)c(CC=C(C)C)c4)c(=O)oc3c2C)OC1(C)C ?
class 0

Would you mind telling me which call this test gave N#CCCN1C(=O)C2(OCCO2)c2ccccc21 ?
class 0

Would you mind telling me which call this test gave CCCCCC(O)C1C(=O)OC(C)C(O)/C=C/C=C/C=C/C=C/C=C(\C)C(O)CC(O)CC(O)CC(O)CC(O)CC(O)CC1O (stereo not given) ?
class 0

Would you mind telling me which call this test gave O=[N+]([O-])c1cccnc1Oc1ccc(Cl)cc1 ?
class 0

Would you mind telling me which call this test gave Cc1ccc(NC(=O)CC#N)c(C)c1 ?
class 0

Would you mind telling me which call this test gave CN(C)CC[C@H](c1ccc(Cl)cc1)c1ccccn1 ?
class 0

Would you mind telling me which call this test gave CC(=O)[C@@]1(O)CCC2C3C=C(Cl)C4=CC(=O)[C@@H]5CC5[C@]4(C)C3CC[C@@]21C (stereo not given in full) ?
class 0

Would you mind telling me which call this test gave COC(=O)C(N)CS (stereo not given) ?
class 0

Would you mind telling me which call this test gave O=C1NC(=S)NC(=O)C1=Cc1cccc2ccccc12 ?
class 0

Would you mind telling me which call this test gave Cc1nc(N=Nc2cc(S(=O)(=O)O)c3cc([N+](=O)[O-])cc(S(=O)(=O)O)c3c2)c(COP(=O)(O)O)c(C=O)c1O ?
class 0

Would you mind telling me which call this test gave N#C/C(=C\c1c[nH]c2ccccc12)C(=O)c1ccc(O)c(O)c1 ?
class 0

Would you mind telling me which call this test gave CC(=O)O[C@@H]1CC2C(C)(C)CCC[C@]2(C)C2CC[C@]3(C)C(=CC(=O)O[C@H]3c3ccoc3)[C@@]21C (stereo not given in full) ?
class 0

Values compiled from PubChem BioAssay AID1159580.
